Test system: Kelly cells
Assay: Crystal violet growth inhibition assay in Kelly cells
Type: cell-based, human
Settings: 48 h treatment
pIC50: −log10 of the molar value.
Quick reference: pIC50 of the listed items.
assay readout: pIC50

> print(dat)
                            chemical.string  test.target  measured.result
1  O=[N+]([O-])c1ccc(Nc2ccccc2-c2ccccc2)c2nonc12  Kelly cells             4.65
2               CCc1ccc(C=C2SC(=S)NC2=O)cc1  Kelly cells             4.39

----------
Target: bHLHZip domain of human c-MYC (353–437) (Homo sapiens, UniProt P01106)
Construct: N-terminally His-tagged bHLHZip c-MYC (353–437) and bHLHZip MYCN (380–464) proteins were over-expressed in E. coli BL21 (DE3); made in house; host or cells: E. coli BL21 (DE3)
Sequence (P01106 368-452): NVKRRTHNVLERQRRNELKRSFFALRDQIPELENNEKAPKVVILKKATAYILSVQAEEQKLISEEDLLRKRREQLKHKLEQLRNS
Test: Surface plasmon resonance binding to bHLHZip of c-MYC
Settings: SPR, 25°C, steady state, mean ± SD
assay readout: Kd (µM)

> print(dat)
                                  compound  assay.readout  measurement.units  measured.result
1  CCc1ccc(C=C2SC(=O)NC2=O)cc1 [C-m/z 232]             Kd                 µM             82.3
